- Target entity: HbS (Homo sapiens, UniProt P68871+P69905, E7V)
- Construct: HbS was obtained from the blood of homozygous S/S patients
- Test protocol: 'R'-'T' assay (conversion of oxy HbS to deoxy HbS under deoxygenating conditions)
- Condition notes: 50% inhibition of HbS 'R'-'T' conversion; 3 uM HbS, <1% O2
Under this convention, satisfied denotes IC50 strictly below 5 µM and not satisfied denotes IC50 at or above 5 µM.

{"Item smiles": "C[C@H](Oc1cc2cc(C(N)=O)ccc2nc1N)c1ncc(F)cc1-n1cccn1", "Classification": "not satisfied"}
{"Item smiles": "C[C@H](Oc1cc2cc(F)ccc2nc1N)c1cc(C(=O)N[C@H]2C[C@H](O)C2)ccc1-n1cccn1", "Classification": "satisfied"}
{"Item smiles": "C[C@H](Oc1cc2cc(F)c(Cl)cc2nc1N)c1cc(C(N)=O)c(F)cc1-n1cccn1", "Classification": "not satisfied"}
{"Item smiles": "C[C@H](Oc1cc2cc(Br)ccc2nc1N)c1ncccc1-n1cccn1", "Classification": "not satisfied"}
{"Item smiles": "C[C@H](Oc1cc2cc(F)cc(F)c2nc1N)c1cc(C(=O)O)ccc1-n1cccn1", "Classification": "satisfied"}
{"Item smiles": "C[C@H](Oc1cc2cc(C(N)=O)ccc2nc1N)c1nc(O)ccc1-n1cccn1", "Classification": "satisfied"}
{"Item smiles": "C[C@H](Oc1cc2cc(F)c(Cl)cc2nc1N)c1ncccc1-n1cccn1", "Classification": "satisfied"}
{"Item smiles": "C[C@H](Oc1cc2cc(C(N)=O)c(F)cc2nc1N)c1ncc(F)cc1-n1cccn1", "Classification": "not satisfied"}
